Tested on: BT-549 breast
protocol.notes: NCI-60 one-dose screen, 48 h (100 = growth as untreated, 0 = no growth, -100 = all killed)
test.parameters: 10 µM unless noted
Compounds without any hit were thinned out: in the full panel of roughly 83,000, 20% have a hit.
assay.metric: growth (%)
Numbers only, in %.

Worked examples, 4 compounds total:
| compound | target.or.system | assay.metric | measured |
| --- | --- | --- | --- |
| COC(=O)[C@]12CC[C@@H](C)[C@H](C)[C@@H]1C1=CC[C@@H]3[C@@]4(C)C(C=O)=C[C@@](C)(COS(C)(=O)=O)[C@@H]4C(=O)C[C@@]3(C)[C@]1(C)CC2 | BT-549 breast | growth | 42.9 |
| CCCCCCCOc1c(OC)cc(C2CC(=O)Nc3c2c(C)nn3-c2nc3ccccc3[nH]2)cc1OC (stereo unspecified) | BT-549 breast | growth | 6.89 |
| C=CCOC1=CC(=O)c2ccccc2C1=O | BT-549 breast | growth | 95.4 |
| COc1cc(/C=C/C(=O)c2cccc(-n3cc(-c4ccccc4)[nH]c3=O)c2)ccc1O | BT-549 breast | growth | 43.9 |

Okay, here is my list. What is growth for each of these?
1. N#Cc1c(N)nn(C(=O)c2ccc(NC(=O)c3ccccn3)cc2)c1-c1ccc(Cl)cc1
2. Cc1ccc(NCCN(C)C)c2c(=O)c3ccccc3sc12
3. CCN(CCNc1ccc(C)c2sc3ccccc3c(=O)c12)CC(C)(C)O
4. O=[N+]([O-])c1ccc(-c2cc(-c3ccc(Nc4nc(Nc5ccc(Cl)cc5)nc(Nc5ccc(Cl)cc5)n4)cc3)no2)cc1
5. CN(C)CCNc1nc2ccccc2c2c1c1c(n2Cc2ccccc2)-c2ccccc2C1=O
6. N[C@@H](CCCCNCC(=O)O)C(=O)O
7. CC1CC2Oc3ccc(Cl)cc3C(=O)N2O1 (stereo unspecified)
8. CCCCCCCCCCCCCCCCCC1=NCCN1CCOC1=C(Cl)C(=O)c2ccccc2C1=O

1. 15.5
2. 76.6
3. 93.4
4. 103
5. -86.8
6. 111
7. 105
8. 68

###

Test system: SF-268 CNS
protocol.notes: NCI-60 one-dose screen, 48 h (100 = growth as untreated, 0 = no growth, -100 = all killed)
test.parameters: 10 µM unless noted
About 83,000 compounds went through this panel and 20% of them were active in at least one assay; those are over-represented in the sample as a whole. The source made the active and inactive calls. Rule for the calls: active = growth percent below 10; inactive = the rest.
assay.metric: growth

See these solved cases before continuing.
| molecule | growth |
| --- | --- |
| Cc1nn(-c2ccccc2)c(Cl)c1/C=C(/NC(=O)c1ccccc1)c1nc2ccccc2[nH]1 | 104% (inactive) |
| O=C1/C(=C\c2cccnc2)SC(=S)N1CCc1ccc(O)cc1 | 68.5% (inactive) |
| CCCc1cc2c(=O)c(C(=O)OC)c[nH]c2cc1N(CC)CC | 102% (inactive) |
| OC(c1cccc(-n2ccc(C(F)(F)F)n2)c1)c1cnccc1NC1CCCCCC1 (stereo unspecified) | 64.4% (inactive) |
| CCOC(CN=Cc1cc(C)c2[nH]c3ccccc3c2c1C)OCC | 92.5% (inactive) |
| CNc1ccc(NC)c2c1C(=O)c1ccccc1C2=O | 76.4% (inactive) |

Please look at the items below and tell me growth for each one, in order.
1. CC(=O)c1ccc(NCC(=O)Nc2ccccn2)cc1
2. CC1(C)CC(=O)CC2(C1)N=C(N)Nc1nc3ccccc3n12 (stereo unspecified)

1. 97.1% (inactive)
2. 107% (inactive)
